Kindly state cAMP induction for each of the entries shown.
- subject of test: Prostaglandin E2 receptor EP2 subtype (Homo sapiens) (UniProt P43116)
- protocol summary: cAMP induction in EP2, EP4, beta2-AR and parental cells, confirmation, counter-screen for EP2 modulator project, cell-based, five parallel assays, C6 glioma, HEK293 (AID 1080)
- stated conditions: cAMP HTRF induction, stronger effect = higher value, screened at 20 µM (by protocol), percent of 1 uM PGE2 response, plus low (about EC15) PGE2 agonist
The whole screen tested about 1,300 compounds, of which about 640 (49%) were called active. So high a share suggests a set chosen from earlier hits. Only a sample is shown.
Number in %, nothing else.

Task: Lookup: cAMP induction / Prostaglandin E2 receptor EP2 subtype (Homo sapiens) (UniProt P43116) / Oc1ccc(/C=N/N(Cc2ccccc2)c2ccccc2)cc1
Result: 55.2

Task: Lookup: cAMP induction / Prostaglandin E2 receptor EP2 subtype (Homo sapiens) (UniProt P43116) / CC1(C)Cc2nc3sc4c(SCC(=O)NC(c5ccccc5)c5ccccc5)ncnc4c3cc2CO1
Result: 68.6

Task: Lookup: cAMP induction / Prostaglandin E2 receptor EP2 subtype (Homo sapiens) (UniProt P43116) / Cc1cc(NC(=O)CN2CCCC(C)C2)n(-c2nc3ccccc3s2)n1 (configuration not stated)
Result: 50.7

Task: Lookup: cAMP induction / Prostaglandin E2 receptor EP2 subtype (Homo sapiens) (UniProt P43116) / CCCc1cc(-c2n[nH]c(=S)n2Cc2ccccc2)cs1
Result: 37.8

Task: Lookup: cAMP induction / Prostaglandin E2 receptor EP2 subtype (Homo sapiens) (UniProt P43116) / CC(C)(C)c1nc2ccccc2c(=O)n1N1C(=O)c2ccccc2C1=O
Result: 36.9

Task: Lookup: cAMP induction / Prostaglandin E2 receptor EP2 subtype (Homo sapiens) (UniProt P43116) / Cc1nn2c(c1-c1ccccc1)N=C(c1ccco1)CC2c1ccccc1 (configuration not stated)
Result: 36.7

Task: Lookup: cAMP induction / Prostaglandin E2 receptor EP2 subtype (Homo sapiens) (UniProt P43116) / Cc1cccc(Cn2c(N3CCN(c4ccccc4)CC3)nc3c2c(=O)n(C)c(=O)n3C)c1
Result: 54.8

Task: Lookup: cAMP induction / Prostaglandin E2 receptor EP2 subtype (Homo sapiens) (UniProt P43116) / CCC(C)(C)c1ccc(OCC(=O)N(C)C)c(C(C)(C)CC)c1
Result: 18.5

Task: Lookup: cAMP induction / Prostaglandin E2 receptor EP2 subtype (Homo sapiens) (UniProt P43116) / CCN1CCN(c2c(Cl)cccc2NC(=O)c2ccc(Br)o2)CC1
Result: 45.8

Task: Lookup: cAMP induction / Prostaglandin E2 receptor EP2 subtype (Homo sapiens) (UniProt P43116) / O=c1[nH]c(CSc2ncc(-c3ccc(F)cc3)n2Cc2ccco2)nc2ccccc12
Result: 39.9

Task: Lookup: cAMP induction / Prostaglandin E2 receptor EP2 subtype (Homo sapiens) (UniProt P43116) / COc1ccccc1NC(=O)CSc1nnc(Cn2nnc(-c3ccccc3)n2)n1-c1ccccc1
Result: 61.9

Task: Lookup: cAMP induction / Prostaglandin E2 receptor EP2 subtype (Homo sapiens) (UniProt P43116) / CCOC(=O)c1c(N)nn(C(=O)c2ccccc2)c1-c1ccccc1
Result: 53.3

Task: Lookup: cAMP induction / Prostaglandin E2 receptor EP2 subtype (Homo sapiens) (UniProt P43116) / CCCCOc1ccc(-c2nnc(-c3ccco3)o2)cc1
Result: 50.4

Task: Lookup: cAMP induction / Prostaglandin E2 receptor EP2 subtype (Homo sapiens) (UniProt P43116) / Cc1cccc2cc(CN(Cc3cccs3)C(c3nnnn3C3CCCC3)C(C)C)c(=O)[nH]c12 (configuration not stated)
Result: 59.5

Task: Lookup: cAMP induction / Prostaglandin E2 receptor EP2 subtype (Homo sapiens) (UniProt P43116) / CCOC(=O)c1c(C2CC2)csc1NC(=O)CSCc1c(C)noc1C
Result: 48.8

Task: Lookup: cAMP induction / Prostaglandin E2 receptor EP2 subtype (Homo sapiens) (UniProt P43116) / O=C(Nc1ccccc1N1CCCCC1)c1cccc(F)c1
Result: 54.4

Task: Lookup: cAMP induction / Prostaglandin E2 receptor EP2 subtype (Homo sapiens) (UniProt P43116) / COC(=O)C1=C(C)N(C)C(C)=C(C(=O)OC)C1c1cccc(Br)c1
Result: 46

Task: Lookup: cAMP induction / Prostaglandin E2 receptor EP2 subtype (Homo sapiens) (UniProt P43116) / CCOc1ccc(NC(=O)CSc2ncnc3c2sc2ccccc23)cc1
Result: 77.7

Task: Lookup: cAMP induction / Prostaglandin E2 receptor EP2 subtype (Homo sapiens) (UniProt P43116) / CCc1ccccc1NC(=O)/C(=C/c1ccccc1)c1ccccc1
Result: 53.6

Task: Lookup: cAMP induction / Prostaglandin E2 receptor EP2 subtype (Homo sapiens) (UniProt P43116) / O=c1cc(N2CCCCC2)c(-c2ccccc2)nn1Cc1cccc(F)c1
Result: 79.6

Task: Lookup: cAMP induction / Prostaglandin E2 receptor EP2 subtype (Homo sapiens) (UniProt P43116) / Cc1ccc(-n2c(SCC(=O)Nc3ccc4c(c3)OCO4)nnc2-c2ccoc2C)cc1
Result: 40.3

Task: Lookup: cAMP induction / Prostaglandin E2 receptor EP2 subtype (Homo sapiens) (UniProt P43116) / COC(=O)CSc1nc2c(c(C3CC=CCC3)c1C#N)CCC2 (configuration not stated)
Result: 69.8
